System: 415267-285-R-J2-PDC complex spheroid viability;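 also: luminescence used as stand-in measure of viable cells; spheroids exposed to compounds for one week before readout; 100% = DMSO vehicle control viability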
Test: Anticancer human tumor 415267-285-R-J2-PDC patient-derived breast carcinoma cell line growth inhibition [POLQ]
Conditions: second compound 1 µM; first compound 10 µM; hits give low values
Method: Multicellular complex tumor spheroid response to Polymerase (POL) inhibitors (novobiocin, ART-558, RP6685) in combination with a variety of drugs and investigational agents in selected tumor cell lines The POL inhibitors (novobiocin, ART-558, and RP6685) were evaluated both individually and in combination with standard of care and investigational anticancer small molecules within a complex spheroid model of solid tumors. . […]
Below: a set of entries, each annotated with reported viability, T/C.
Write the value in % as a bare number.

# count of solved cases: 3
{"Compound": "CC(C)n1c(=O)n(C)c2cnc3cc(F)c(-c4ccc(OCCCN5CCCCC5)nc4)cc3c21 + Cc1cccc(N(C)C(=O)C2C(O)CCN2c2nc(C)cc(C(F)(F)F)c2C#N)c1", "viability, T/C / %": 87.5}
{"Compound": "CC1COCCN1c1cc(C2(O)CC3CCC(C2)O3)c2cnn(-c3ccn[nH]3)c2n1 (stereo unspecified) + Nc1ccc(C#CCN(C(=O)Cc2ncc(C(F)(F)F)cc2C(F)(F)F)c2ccc(F)cc2)nn1", "viability, T/C / %": 2.6}
{"Compound": "CNCc1ccc(-c2[nH]c3cc(F)cc4c3c2CCNC4=O)cc1 + Cc1cccc(N(C)C(=O)C2C(O)CCN2c2nc(C)cc(C(F)(F)F)c2C#N)c1", "viability, T/C / %": 84.3}

Request: Lookup: viability, T/C / 415267-285-R-J2-PDC complex spheroid viability / CNCc1ccc(-c2[nH]c3cc(F)cc4c3c2CCNC4=O)cc1 + COC1C(OC(N)=O)C(O)C(Oc2ccc3c(O)c(NC(=O)c4ccc(O)c(CC=C(C)C)c4)c(=O)oc3c2C)OC1(C)C
Result: 98.7

Request: Find viability, T/C (415267-285-R-J2-PDC complex spheroid viability) for the entry Nc1ccn(C2OC(CO)C(O)C2(F)F)c(=O)n1 (stereo unspecified) + Nc1ccc(C#CCN(C(=O)Cc2ncc(C(F)(F)F)cc2C(F)(F)F)c2ccc(F)cc2)nn1
Result: 5.07

Request: // map CCCS(=O)(=O)Nc1ccc(F)c(C(=O)c2c[nH]c3ncc(-c4ccc(Cl)cc4)cc23)c1F + Nc1ccc(C#CCN(C(=O)Cc2ncc(C(F)(F)F)cc2C(F)(F)F)c2ccc(F)cc2)nn1 to recorded viability, T/C (system: 415267-285-R-J2-PDC complex spheroid viability);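 also: luminescence used as stand-in measure of viable cells; spheroids exposed to compounds for one week before readout; 100% = DMSO vehicle control viability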
Result: 82.3
